B1: ZNF75A (parent)
chain: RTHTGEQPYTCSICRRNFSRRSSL

Variants of: B1
assay-summary: protein stability index of a GFP-peptide fusion (GPS, HEK-293T) (PSI 1-6); higher = more stable;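 also: lentivirally expressed fusions sorted by FACS into six bins by GFP to DsRed ratio, PSI derived from sequencing read proportions per bin multiplied by bin number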
setup-conditions: c terminus: a fixed tail appended
endpoint-label: protein stability index
// print number alone

Study these solved cases before continuing.
# variant-identifier, protein stability index
measured = [
    ("S12T", 2.82),
    ("E6T", 2.94),
    ("R21I", 1.61),
    ("I13S", 2.71),
    ("R16P", 2.3),
]

Look up protein stability index for this variant: R20D
2.46

Query (variant): R1W ; field requested: protein stability index
2.67

Suppose we examine the variant S22F ; what protein stability index value has been reported?
2.81

# input variant: S22D ; wanted: its protein stability index
2.3

What value of protein stability index has been reported for the following variant? R21D
2.73

Look at this variant and give its reported protein stability index. R21P
1.97

Tell me the measured protein stability index of E6S , please.
2.3
